System: A549 cells
Type: cell-based
parameter_measured: cell entry

monomer_sequence | parameter_measured | result
DRLFFKCIYRRLKYGLKR [Jilin-2004(H5N1)-M2-44-61] | cell entry | entered A549 cells
FFKCIYRRLKYGLKRGPS [Jilin-2004(H5N1)-M2-47-64] | cell entry | entered A549 cells
CIYRRLKYGLKRGPSTEG [Jilin-2004(H5N1)-M2-50-67] | cell entry | entered A549 cells
